target: T1, cynomolgus monkey IL-2 (cynomolgus monkey, UniProt Q29615 21-154); experiment: BIACORE
T1 construct: also called cyno IL-2
T1 sequence (Q29615 21-154 limits assumed): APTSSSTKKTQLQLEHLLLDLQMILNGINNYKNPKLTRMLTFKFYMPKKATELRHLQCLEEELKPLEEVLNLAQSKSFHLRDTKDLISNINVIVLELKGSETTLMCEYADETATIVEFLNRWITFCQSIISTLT
pKd: −log10 of the molar value.
Each item that follows carries a reported pKd.

binder	pKd
2H11 (antibody, V domains shown) VH: EVQLVQSGAEVKKPGESLKISCKGSGYNFTTYWIGWVRQMPGKGLEWMGIIYPGDSDTRYSPSFQGQVTISADKSINTAYLQWSSLKASDTAIYYCARDTGYFDYWGQGTLVTVSS VL: SYELTQPPSVSVSPGQTARITCSGDALPRKFAYWYQQKSGQAPVLVIYEDRKRPSGIPERFSGSSSGTMATLTISGAQVEDEADYYCYSTDRSGDHVVFGGGTKLTVL	~11.10
9D6 (antibody, V domains shown) VH: EVQLVQSGAEVKKPGESLKISCKGSGYRFTSYWIGWVRQMPGKGLEWMGIIHPGDSDTRYSPSFQGQVTISADKSISTAYLQWSSLKASDTAIYYCTRQGRSFYYYGMDVWGQGTTVTVSS VL: DIVMTQTPLSLPVTPGEPASISCRSSQSLLDSDEGNTYLDWYLQKPGQSPQLLIYTLSYRASGVPDRFSGTGSDTDFTLKISRVEAEDVGVYYCMQRIEFPLTFGGGTKVEIK	~10.80
18F3 (antibody, V domains shown) VH: QVQLQESGPGLVKPSQTLSLTCTVSGGSISSGGYYWSWIRQHPGKGLEWIGYIYYSGSTDYNPSLKSRGIISGDTSKNQFSLKLNSVTAADTAVYYCAREGRFGELGSYYFDYWGQGTLVTVSS VL: SYELTQPPSVSVSPGQTARIACSGDALPRKFAYWYQQKSGQAPVLVISEDSRRPSGIPERFSGSSSGTMATLTISGAQVEDEADYYCFSTDSSANHRVFGGGTKLTVL	~10.30
9B10 (antibody, V domains shown) VH: QVQLVESGGGVVQPGRSLRLSCAASGFTFSSYAMHWVRQAPGKGLEWVAVIWYDGINKYYADSVKGRFTISRDNSKNTLYLQMNSLRAEDTAVYYCARGSYYDSSGYYFGEDFDYWGQGTLVTVSS VL: DIVMTQTPLSSPVTLGQPASISCRSSHNLLHSDGNTYLSWLQQRPGQPPRLLIYEISNRFSGVPDRFSGSGAGTDFTLKISRVEAEDVGVYYCMQVTQFPTFGGGTKVEIK	~9.80
